- ASSAY_TEXT: sensitizers of A549 cells to miR-34 induction, primary screen, imaging, A549 dox-inducible miR-34, nuclei and caspase counts (AID 1347080); note: test concentration not given here
- APPLIED_CONDITIONS: A549 miR-34 inducible, Hoechst nuclei count, 48 h; measured here: total cells without miR-34 induction
Could you please classify the records by cell count using these ranges: c1: < 6000; c2: ≥ 6000 and < 9000; c3: ≥ 9000

Observe how each entry below is paired with its result.
CCOP(=S)(OCC)Oc1ccc2c(C)c(Cl)c(=O)oc2c1	c3
Cc1ncc2n1-c1ccc(Cl)cc1C(c1ccccc1F)=NC2	c2

Data request: Exam item: assign "O=Cc1cn(Cc2ccc(Cl)cc2)c2ccccc12" to the correct category.
Data returned: c1

Data request: Assign a bin to CO[C@H](C)C(O)(C(=O)OCC1=CCN2CC[C@H](O)[C@@H]12)C(C)C (stereo partly specified)
Data returned: c3

Data request: # classify by cell count band: CCCCCC[C@H]1C(=O)O[C@H](C)C(NC(=O)c2cccc(NC=O)c2O)C(=O)O[C@@H](C)[C@@H]1OC(=O)CC(C)C (stereo partly specified)
Data returned: c1

Data request: Class label required: COc1cc2c(cc1O)C(CCc1ccc(Cl)cc1)N(C)CC2 (stereo unspecified)
Data returned: c2

Data request: Lab log: "CCCn1c(=O)c2[nH]c(C3CCCC3)nc2n(CCCOC(=O)c2ccc(S(=O)(=O)F)cc2)c1=O" — assign cell count category
Data returned: c2

Data request: Which class is correct for the following molecule? Cc1sc2c(c1C)C(c1ccc(Cl)cc1)=NC(CC(=O)Nc1ccc(O)cc1)c1nnc(C)n1-2 (stereo unspecified)
Data returned: c1

Data request: Kindly state the category for this molecule: "CC(C)C[C@@H](CN)CC(=O)O"
Data returned: c3

Data request: Given "CN1C[C@@H](NS(=O)(=O)N(C)C)C[C@@H]2c3cccc4c3c(cn4C)C[C@H]21" , name the class its cell count places it in.
Data returned: c3

Data request: Which bin, given its cell count, does CC(=O)[C@H]1CCC2C3CC[C@H]4C[C@H](O)CC[C@]4(C)C3CC[C@@]21C (stereo partly specified) occupy?
Data returned: c3

Data request: Hello team, could you let me know which band the following molecule falls into: "CNCCc1ccc(O)c(O)c1"
Data returned: c3

* * *

For each entry below, report its fold change value.
- ASSAY_TEXT: sensitizers of A549 cells to miR-34 induction, primary screen, imaging, A549 dox-inducible miR-34, nuclei and caspase counts (AID 1347080); note: test concentration not given here
- APPLIED_CONDITIONS: A549 miR-34 inducible, Hoechst nuclei count, 48 h; measured here: relative caspase fold change +Dox/-Dox
Give bare numbers.

Reference set, count: 5
N#Cc1cnn(-c2ccc(Cl)cc2)c1N	1.03
CN1CCN(c2ccc3ccccc3n2)CC1	0.813
CCCCOC(=O)c1ccccc1C(=O)OCCCC	1.43
CN1[C@@H]2CC[C@H]1CC(OC(=O)N1Cc3ccccc3NC1=O)C2 (stereo partly specified)	1.11
CNc1ccc2oc(C[C@H]3O[C@@]4(CC[C@H]3C)O[C@H]([C@H](C)C(=O)c3ccc[nH]3)[C@H](C)C[C@H]4C)nc2c1C(=O)O	1.6

Parameters: items (list). Returns: fold change for each item.
1. CN1CC[C@@]2(C)c3cc(O)ccc3N(C)C12 (stereo partly specified)
2. CCCCCCC(=O)O[C@H]1CC[C@H]2[C@@H]3C[C@@H](O)C4=CC(=O)CC[C@]4(C)[C@H]3CC[C@]12C
3. CC(=Cc1csc(C)n1)C1CC2OC2CCCC(C)C(O)C(C)C(=O)C(C)(C)C(O)CC(=O)O1 (stereo unspecified)
4. C[C@H]1CCC2(NC1)O[C@H]1C[C@H]3[C@@H]4CC[C@H]5C[C@@H](O[C@@H]6O[C@H](CO)[C@H](O[C@@H]7O[C@H](CO)[C@@H](O)[C@H](O[C@@H]8OC[C@@H](O)[C@H](O)[C@H]8O)[C@H]7O[C@@H]7O[C@H](CO)[C@@H](O)[C@H](O)[C@H]7O)[C@H](O)[C@H]6O)CC[C@]5(C)[C@H]4CC[C@]3(C)[C@H]1[C@@H]2C (stereo partly specified)

Data returned:
1.19
0.446
1.17
0.652

// each listed molecule needs a value for fold change
1. C=CCN1CCC23c4c5ccc(O)c4O[C@H]2C(=O)CC[C@@]3(O)C1C5 (stereo partly specified)
2. CCCC(C)C1(CC)C(=O)N=C(S)NC1=O (stereo unspecified)
3. CC1(C)CC(O)CC(C)(C)N1O
4. OC12C3C4CC5C6C4C1C6C(C53)N2CCc1cccc(F)c1 (stereo unspecified)
5. C[C@H](N)CN1CCc2ccc(Br)cc21
6. CCCCCC=CCC=CCC=CCC=CCCCC(=O)Nc1ccc(O)cc1

Data returned:
1. 1.06
2. 4.02
3. 0.416
4. 1.86
5. 0.954
6. 1.13

Quick request: fold change for each listed item, please.
1. Cc1ccc(C[N+](C)(C)C)o1
2. NC=Nc1ccc2[nH]c3c(c2c1)C[C@@]1(O)C2Cc4ccc(O)c5c4[C@@]1(CCN2CC1CC1)[C@H]3O5
3. CC(C)c1c(CN(C)C(C)Cc2ccccc2)n(C)n(-c2ccccc2)c1=O (stereo unspecified)
4. COc1ccc2c(c1O)-c1c(OC)c(OC)cc3c1[C@H](C2)N(C)CC3

Data returned:
[0.883, 1.22, 1.06, 1.06]

* * *

- ASSAY_TEXT: sensitizers of A549 cells to miR-34 induction, primary screen, imaging, A549 dox-inducible miR-34, nuclei and caspase counts (AID 1347080); note: test concentration not given here
- APPLIED_CONDITIONS: A549 miR-34 inducible, Hoechst nuclei count, 48 h; measured here: total cells without miR-34 induction
Peptide text beside a SMILES is read from it. * marks the point of attachment. CH2Cl = ClC*
ASSAY_ENDPOINT: cell count
Give bare numbers.

CN1C2CCC1CC(OC(c1ccc(F)cc1)c1ccc(F)cc1)C2 (stereo unspecified)	7460
COc1cccc2ncn(Cc3cn4ccccc4n3)c(=O)c12	9730
O=[N+]([O-])c1ccc2nc(N3CCNCC3)ccc2c1	8090
CC(=Cc1csc(C)n1)C1CC2O[C@]2(C)CCCC(C)C(O)C(C)C(=O)C(C)(C)C(O)CC(=O)O1 (stereo partly specified)	1500
C=CCN1C[C@@H](C)N([C@H](c2ccc(C(=O)N(CC)CC)cc2)c2cccc(OC)c2)C[C@@H]1C	7950
CCOC(=O)c1cncn1[C@@H](C)c1ccccc1	8960
C[C@H]1O[C@@H](OC2CC[C@]3(C=O)[C@H]4CC[C@]5(C)[C@@H](C6=CC(=O)OC6)CC[C@]5(O)[C@@H]4CC[C@]3(O)C2)C[C@H](O)[C@@H]1O (stereo partly specified)	1440
Oc1ccc2c3c1O[C@H]1c4[nH]c5ccccc5c4C[C@@]4(O)C(C2)N(CC2CC2)CCC314 (stereo partly specified)	8080

// input: 5 compounds below; output: cell count for each
1. CCCN1CCC[C@@H](c2cccc(O)c2)C1
2. CCCCC/C=C\C/C=C\C/C=C\C/C=C\CCCC(=O)NC[C@@H](C)O
3. COc1ccn(C)c(=O)c1C#N
4. NC(CP(=O)(O)O)C(=O)O (stereo unspecified)
5. CCCCC/C=C\C/C=C\C/C=C\C/C=C\CCCC(=O)NCCS(=O)(=O)O

Data returned:
10300
6030
10400
10400
5730

Provide cell count values for the following items, in order.
1. CC[C@H]1C2C[C@H]3[C@@H]4N(C)c5ccccc5C45C[C@H](C2[C@H]5O)N3[C@@H]1O (stereo partly specified)
2. O[C@H]1[C@H]2[C@H](O)CCCN2C[C@H]1O
3. CCC1C=CC=CCC(C)C(O)C(C)C(=O)C(C)C(O)C(C)C(=O)C(C)C(O)C(C)C=CC(=O)OC2C(C)C(CC1)O[C@@]1(CCC(C)C(CC(C)O)O1)C2C (stereo partly specified)
4. COc1ccc(S(=O)(=O)N(CCO)c2ccccc2CN(C)CC=Cc2ccc(Cl)cc2)cc1
5. C=C(C)CN1CC[C@]23c4c5ccc(O)c4OC2c2[nH]c4ccccc4c2C[C@@]3(O)C1C5 (stereo partly specified)
6. CC1CNCCc2ccc(Cl)cc21 (stereo unspecified)
7. CC(=O)OCC(=O)[C@H]1CC[C@H]2[C@@H]3CC[C@H]4C[C@H](O)CC[C@]4(C)[C@H]3C(=O)C[C@]12C

Data returned:
[10400, 6260, 6920, 5560, 3110, 9060, 9230]

Your task in this section: give cell count for each listed record.
1. COc1ccc2c(c1OC)C(=O)O[C@H]2[C@@H]1c2cc3c(cc2CCN1C)OCO3
2. CC(C)[C@]12O[C@H]1[C@@H]1O[C@]13[C@]1(O[C@H]1C[C@H]1C4=C(CC[C@@]13C)C(=O)OC4)[C@@H]2O
3. NC1C[C@H]1c1ccccc1 (stereo partly specified)

Data returned:
1. 10900
2. 1300
3. 12900

Dear reader, for each entry below, please note its cell count.
1. COc1ccc(CCN)cc1OC
2. CC1C=CC=CCCC=CC=CC=CC=CC(OC2OC(C)C(O)C(N)C2O)CC2O[C@@](O)(CC(O)C(O)CCC(O)CC(O)CC(O)CC(=O)OC(C)C(C)C1O)CC(O)C2C(=O)O (stereo partly specified)
3. CN[C@@H]1C[C@H]2O[C@@](C)([C@@H]1OC)n1c3ccccc3c3c4c(c5c6ccccc6n2c5c31)C(=O)NC4
4. C=CCN1CC[C@]2(C)c3cc(O)ccc3CC1[C@@H]2C
5. CCN1CCN(C(=O)Cc2ccc(Nc3ncc(F)c(Nc4ccc(C(=O)Nc5ccccc5Cl)cc4)n3)cc2)CC1

Data returned:
1. 7830
2. 8370
3. 732
4. 8960
5. 869

Fill in cell count for each of the 2 compounds listed.
1. O=c1cccc2n1CC1CNCC2C1 (stereo unspecified)
2. CC12CCC(=O)C=C1CCC1C2CCC2(C)C(O)CCC12 (stereo unspecified)

Data returned:
8430
10400

Need cell count for each of these compounds.
1. CCCOc1ccc2[nH]cc(C3=CCNCC3)c2n1
2. COP(=S)(OC)Oc1cc(Cl)c(Cl)cc1Cl
3. CN1C2CCC1CC(=O)C2
4. O=C1/C(=C/c2ccccc2)C[C@@]2(O)[C@H]3Cc4ccc(O)c5c4[C@@]2(CCN3CC2CC2)[C@H]1O5
5. CCOC(=O)CC(SP(=S)(OC)OC)C(=O)OCC (stereo unspecified)
6. C[C@]12CC(=CO)C(=O)CC1CCC1C2CC[C@@]2(C)C1CC[C@]2(C)O (stereo partly specified)
7. Oc1ccc(Cl)cc1

Data returned:
1. 9210
2. 13300
3. 10200
4. 478
5. 8640
6. 9790
7. 12500

Below is a list of compounds. For each, state its recorded cell count.
1. CCc1c(C(=O)C(N)=O)c2c(OCC(=O)O)cccc2n1Cc1ccccc1
2. CC(Cc1ccccc1)NCCC(c1ccccc1)c1ccccc1 (stereo unspecified)
3. C[C@H](N)C(=O)N[C@@H](C)C(=O)N[C@@H](Cc1ccccc1)C(=O)CCl (H-Ala-Ala-Phe-CH2Cl)
4. CN1[C@@H]2CC[C@H]1CC(OC1c3ccccc3CCc3ccccc31)C2 (stereo partly specified)

Data returned:
1: 8710; 2: 2580; 3: 3680; 4: 9070
